measured on: Cytochrome P450 2D6 (Homo sapiens)
experiment description: Cytochrome P450 Family 2 Subfamily D Member 6 (CYP2D6) small molecule antagonists: luciferase reporter qHTS assay (AID 1671196); also: nearly all actives have a fitted effect of over 50% in size
setup conditions: P450-Glo CYP2D6 enzyme assay, luciferin luminescence, 1 h; series mostly up to 115 µM
Inconclusive results are not listed. The source made the active and inactive calls. Calls follow the shape of the dose curve; as a rule, active = well fitted inhibition curve with a large enough effect in the repeat runs; inconclusive = weak or mixed curves; inactive = no such curve, though single readings can be large or run the other way.
Use one of these outcomes when replying: active, inactive

Reference set (2 entries):
{"compound": "Cc1cnccn1", "measured on": "Cytochrome P450 2D6 (Homo sapiens)", "class name": "inactive"}
{"compound": "CC(C)C(=O)OCc1ccccc1", "measured on": "Cytochrome P450 2D6 (Homo sapiens)", "class name": "inactive"}

Request: Look up the recorded call for CO[Si](CCC1CCC2OC2C1)(OC)OC (stereo not drawn) in this test.
Response: inactive

Request: Look up the recorded call for CSc1c(Cl)c(Cl)c(Cl)c(Cl)c1Cl in this test.
Response: inactive

Request: Look up the recorded call for C1CC(COCC2CO2)CCC1COCC1CO1 (stereo not drawn) in this test.
Response: inactive

Request: Look up the recorded call for Cc1cc(=O)[nH]c(=O)[nH]1 in this test.
Response: inactive

Request: Look up the recorded call for Nc1ccc2cc3ccc(N)cc3nc2c1 in this test.
Response: active

Request: Look up the recorded call for Cc1cccc(C)c1NC(=O)CN1CCN(CCCC(c2ccc(F)cc2)c2ccc(F)cc2)CC1 in this test.
Response: active
